assay_target: T1, Fibrinogen fragment D (human, UniProt P02671 130-216; P02675 164-491; P02679 114-432, limits assumed)
T1 construct: domain: Fragment D (or D-domain); Made by plasmin digestion of human fibrinogen and purified on GPRPAA beads; holds the C-terminal polymerization pockets without the N-terminal knobs; immobilised by amine coupling on the SPR chip; also called D-domain
T1 sequence (looked up) 1: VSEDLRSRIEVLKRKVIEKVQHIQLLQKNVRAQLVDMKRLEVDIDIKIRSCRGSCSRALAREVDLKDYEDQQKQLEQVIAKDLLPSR
T1 sequence (looked up) 2: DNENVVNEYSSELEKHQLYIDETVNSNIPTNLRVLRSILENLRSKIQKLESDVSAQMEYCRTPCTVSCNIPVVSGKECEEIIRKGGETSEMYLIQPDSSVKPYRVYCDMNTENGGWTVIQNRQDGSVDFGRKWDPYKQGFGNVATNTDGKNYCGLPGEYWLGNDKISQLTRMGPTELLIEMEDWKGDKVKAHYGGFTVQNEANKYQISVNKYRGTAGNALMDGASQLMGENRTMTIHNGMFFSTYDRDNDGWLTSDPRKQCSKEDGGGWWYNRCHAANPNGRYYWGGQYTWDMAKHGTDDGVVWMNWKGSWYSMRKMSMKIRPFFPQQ
T1 sequence (looked up) 3: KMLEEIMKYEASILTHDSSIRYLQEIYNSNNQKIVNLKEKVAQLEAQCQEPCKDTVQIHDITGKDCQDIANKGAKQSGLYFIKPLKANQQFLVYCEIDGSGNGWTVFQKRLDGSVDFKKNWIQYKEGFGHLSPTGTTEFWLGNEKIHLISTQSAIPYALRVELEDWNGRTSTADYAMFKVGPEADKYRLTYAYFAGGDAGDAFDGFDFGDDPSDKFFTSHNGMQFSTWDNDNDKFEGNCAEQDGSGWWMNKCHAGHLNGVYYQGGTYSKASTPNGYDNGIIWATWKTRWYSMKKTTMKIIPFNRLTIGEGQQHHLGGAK
run_description: SPR, fragment D immobilised, heterogeneous ligand model, site 2 (kd2)
Outcome label depends on koff relative to 0.004 s⁻¹: at/above gives T, below gives F.

>>> label("GPRPAAC (Synthetic (GenScript); kept reduced with immobilised TCEP; also called gold standard GPRP mimic; knob 'A' peptide)")
"T"
>>> label("GPRVVAAC (Synthetic (GenScript); also called knob 'A' peptide)")
"F"
>>> label("GPRPFPAC (Synthetic (GenScript); also called knob 'A' peptide)")
"F"

I'd appreciate it if you could say whether GPRPPERC (Synthetic (GenScript); also called knob 'A' peptide) has koff at least equal to 0.004 s⁻¹.
F

Measured values drawn from patent US20120114682A1 for this set.
